Provide the reported MFI at 33.3 nM of each item.
study system: T1, human CTLA-4 (CTLA4), full-length, expressed on the surface of CHO cells (human, UniProt P16410 36-223)
T1 construct: also called huCTLA4
T1 sequence (P16410 36-223): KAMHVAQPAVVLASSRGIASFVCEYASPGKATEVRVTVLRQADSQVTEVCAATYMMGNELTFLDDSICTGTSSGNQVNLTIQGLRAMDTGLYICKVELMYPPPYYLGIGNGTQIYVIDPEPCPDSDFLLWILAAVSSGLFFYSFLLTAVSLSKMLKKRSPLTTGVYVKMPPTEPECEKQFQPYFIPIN
experimental details: flow cytometry, CHO cells stably expressing human CTLA-4, 33.3 nM Fc fusion, PE anti-human Fc
State the result as a value with its unit after it.

Lookup: Given variant CD80 IgV-Fc E35D/M47L/A71G/L97Q (Fc fusion, not shown: a dimerising Fc or GST) VIHVTKEVKEVATLSCGHNVSVEELAQTRIYWQKDKKMVLTMMSGDLNIWPEYKNRTIFDITNNLSIVILGLRPSDEGTYECVVLKYEKDAFKREHQAEVTLSVKAD , state its recorded MFI at 33.3 nM.
Found: 226000 MFI

Lookup: Given variant CD80 IgV-Fc V22A/E35D/V68E/A71D (Fc fusion, not shown: a dimerising Fc or GST, The molecule is an Fc fusion, which the general text describes as a dimer) VIHVTKEVKEVATLSCGHNVSAEELAQTRIYWQKDKKMVLTMMSGDMNIWPEYKNRTIFDITNNLSIEILDLRPSDEGTYECVVLKYEKDAFKREHLAEVTLSVKAD , state its recorded MFI at 33.3 nM.
Found: 437000 MFI

Lookup: Given variant CD80 IgV-Fc Q33L/E35D/M43I/L85Q/R94W (Fc fusion, not shown: a dimerising Fc or GST) VIHVTKEVKEVATLSCGHNVSVEELAQTRIYWLKDKKMVLTMISGDMNIWPEYKNRTIFDITNNLSIVILALRPSDEGTYECVVQKYEKDAFKWEHLAEVTLSVKAD , state its recorded MFI at 33.3 nM.
Found: 1080 MFI

Lookup: Given variant CD80 IgV-Fc Q33L/E35D/M47L/A71G/F92S (Fc fusion, not shown: a dimerising Fc or GST) VIHVTKEVKEVATLSCGHNVSVEELAQTRIYWLKDKKMVLTMMSGDLNIWPEYKNRTIFDITNNLSIVILGLRPSDEGTYECVVLKYEKDASKREHLAEVTLSVKAD , state its recorded MFI at 33.3 nM.
Found: 2110 MFI

Attribution: patent US20210130436A1
